Each recorded value in this set is attributed to patent US20240150321A1.

Listing: IC50 of selected compounds
# target desc: UniProtKB Q9UDY8

Recorded IC50, per entry:
• Cn1ncc2cccc(NS(=O)(=O)c3cnn(-c4cc(N5CC6CC(C6)C5)ccn4)c3)c21 = > 2500 nM
• Cn1ncc2cccc(NS(=O)(=O)c3cnn(-c4cc(N5CC6CC5C6)ccn4)c3)c21 = > 2500 nM
• COc1ccc2cnn(C)c2c1NS(=O)(=O)c1cnn(-c2cc([C@@H](C)O)ccn2)c1 = ≤ 400 nM
• [2H]C([2H])([2H])Oc1ccc2cnn(C([2H])([2H])[2H])c2c1NS(=O)(=O)c1cnn(-c2cc(C(F)(F)F)ccn2)c1 = ≤ 400 nM
• O=S(=O)(c1cnn(-c2cc(C(F)(F)F)ccn2)c1)N1CCn2ncc3cccc1c32 = > 2500 nM

Look at this compound and give its reported IC50. "Cn1ncc2cccc(NS(=O)(=O)c3cnn(-c4cc(N5C(=O)OCC5(C)C)ccn4)c3)c21" > 2500 nM

Subsequent entry: "COc1ccc2cnn(C)c2c1NS(=O)(=O)c1cnn(-c2cc(N3CCC3)ccn2)c1" ≤ 400 nM

Subsequent entry: "Cn1ncc2cccc(NS(=O)(=O)c3cnn(-c4cc(NC(C)(C)CO)ccn4)c3)c21" > 2500 nM

Subsequent entry: "COc1ncc2cnn(C)c2c1NS(=O)(=O)c1cnn(-c2cc(C(F)F)ccn2)c1" ≤ 400 nM

Subsequent entry: "CCc1ccc2cnn(C)c2c1NS(=O)(=O)c1cnn(-c2ccnc(C(F)(F)F)n2)c1" 1000 to 2500 nM

Subsequent entry: COc1ccc2cnn(C)c2c1NS(=O)(=O)c1cnn(-c2cc(N3CC4CC4C3)ccn2)c1 (stereo not drawn) > 2500 nM

Subsequent entry: CCC(C)(OC)c1ccnc(-n2cc(S(=O)(=O)Nc3c(OC)ccc4cnn(C)c34)cn2)c1 (single isomer, unassigned) ≤ 400 nM

Subsequent entry: "COc1ccc2cnn(C)c2c1NS(=O)(=O)c1cnn(-c2cc(C)ccn2)c1" ≤ 400 nM

Subsequent entry: "Cn1ncc2cccc(NS(=O)(=O)c3cnn(-c4cc(C(C)(C)F)ccn4)c3)c21" > 2500 nM

Subsequent entry: "O=S(=O)(Nc1cccc2cnn(C(F)F)c12)c1cnn(-c2cc(C(F)F)ccn2)c1" > 2500 nM

Subsequent entry: "Cc1n[nH]c2cccc(NS(=O)(=O)c3cnn(-c4ccnc(C(F)(F)F)c4)c3)c12" > 2500 nM

Subsequent entry: COc1ncc2cnn(C)c2c1NS(=O)(=O)c1cnn(-c2cc(C(C)OC)ccn2)c1 (single isomer, unassigned) ≤ 400 nM

###

# IC50 per entry for Avi-tagged FL MALT-1 (Homo sapiens (Human), UniProt Q9UDY8)

Look at this compound and give its reported IC50. "COc1ccc2cnn(C)c2c1NS(=O)(=O)c1cnn(-c2cc(N3CC4(CC4)C3)ccn2)c1" > 2.5 µM

Subsequent entry: "CCc1ccc2cnn(C)c2c1NS(=O)(=O)c1cnn(-c2ccnc(C(F)(F)F)c2)n1" ≤ 0.4 µM

Subsequent entry: "Cn1ncc2cccc(NS(=O)(=O)c3cnn([C@H]4CCCN(CC(F)(F)F)C4)c3)c21" > 2.5 µM

Subsequent entry: "Cc1n[nH]c2cccc(N(C)S(=O)(=O)c3cnn(-c4cc(C(F)(F)F)ccn4)c3)c12" 0.4 to 1 µM

Subsequent entry: Cn1ncc2cccc(NS(=O)(=O)c3cnn(-c4cc(C5CC(O)C5)ccn4)c3)c21 (stereo not shown) > 2.5 µM

Subsequent entry: "COc1ccc2cnn(C)c2c1NS(=O)(=O)c1cnn(-c2cc(C3(OC)CCC3)ccn2)c1" ≤ 0.4 µM

Subsequent entry: "CCc1ccc2cnn(C)c2c1NS(=O)(=O)c1cnn(-c2ccc(C(F)(F)F)cn2)c1" ≤ 0.4 µM

Subsequent entry: COc1ncc2cnn(C)c2c1NS(=O)(=O)c1cnn(-c2cc(C(C)O)ccn2)c1 (single isomer, unassigned) [Compound I-293] ≤ 0.4 µM

Subsequent entry: "Cc1ccc2[nH]nc(C)c2c1NS(=O)(=O)c1cnn(-c2cc(C(F)(F)F)ccn2)c1" ≤ 0.4 µM
